Tested on: S. enterica typhimurium tolC KO;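 also: active when median AUC fell below 0.1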
Experiment: growth AUC normalised to DMSO control (median) (fraction of control); higher = less growth inhibition, active = hit call of the paper
Conditions: 20 µM
Structures can show the parent of a compound that is named as a salt.
RECORDED_METRIC: growth AUC normalised to DMSO control
// no unit string in output, number only

COMPOUND	RECORDED_METRIC	TEST_RESULT
CCC(=O)O[C@H]1CC[C@H]2[C@@H]3CCC4=CC(=O)CC[C@]4(C)[C@H]3CC[C@]12C [Testosterone propionate]	growth AUC normalised to DMSO control	0.911
CC(C)=CC1C(C(=O)OCc2cccc(Oc3ccccc3)c2)C1(C)C (centres undefined)	growth AUC normalised to DMSO control	1.01
C[C@@H]1CN([C@H]2CC[C@](C#N)(c3ccc(F)cc3)CC2)CC[C@]1(C(=O)O)c1ccccc1 [Levocabastine hydrochloride]	growth AUC normalised to DMSO control	1.01

Ask: Consider the compound shown here: O=P1(N(CCCl)CCCl)NCCCO1 (centres undefined) [Cyclophosphamide] What is its recorded growth AUC normalised to DMSO control?
Reply: 0.997

Source of measurements: the supplement of paper PMC12350171
